Provenance of the data: the supplement of paper PMC8728848

# tested-target: Gal(b1-4)GlcNAc(b1-3)Gal(b1-4)GlcNAc
# method: glycan array binding signal (z-score within array); higher = stronger binding
# particulars: glycan notation: IUPAC condensed, linker removed
This is one part of a sample in which the strongest signals are shown more often than they occur.
measured-metric: glycan array binding signal (z-score)

Recorded result, LF82 (Escherichia coli) (protein) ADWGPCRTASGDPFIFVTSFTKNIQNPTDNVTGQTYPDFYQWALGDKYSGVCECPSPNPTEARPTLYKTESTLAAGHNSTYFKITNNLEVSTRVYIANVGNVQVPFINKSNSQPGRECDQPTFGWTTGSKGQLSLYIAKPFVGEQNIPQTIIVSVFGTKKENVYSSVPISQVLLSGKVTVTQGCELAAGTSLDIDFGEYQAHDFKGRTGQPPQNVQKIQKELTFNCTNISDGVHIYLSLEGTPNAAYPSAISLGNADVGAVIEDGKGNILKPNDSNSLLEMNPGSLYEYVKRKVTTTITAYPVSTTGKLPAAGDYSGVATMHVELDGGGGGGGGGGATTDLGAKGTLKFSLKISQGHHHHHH , glycan array binding signal (z-score): -1.12
